These measurements were taken from paper PMC7305236.

System Tested: CXCR6 (Homo sapiens, UniProt O00574)
Construct: expressed in transfected cells
Sequence (O00574 whole entry): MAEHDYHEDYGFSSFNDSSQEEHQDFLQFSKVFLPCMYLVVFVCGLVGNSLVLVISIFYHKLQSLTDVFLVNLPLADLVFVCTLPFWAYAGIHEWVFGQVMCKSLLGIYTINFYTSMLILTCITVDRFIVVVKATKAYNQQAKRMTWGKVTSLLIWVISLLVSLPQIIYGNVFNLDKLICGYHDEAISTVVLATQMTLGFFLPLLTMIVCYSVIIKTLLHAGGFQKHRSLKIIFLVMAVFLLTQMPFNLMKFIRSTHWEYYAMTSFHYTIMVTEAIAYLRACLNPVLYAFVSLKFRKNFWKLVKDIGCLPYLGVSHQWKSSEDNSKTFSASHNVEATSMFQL
Assay: Figure S2a opioid peptide screen on chemokine receptors
Assay type: cell-based
Parameters: dose or concentration left out as unconfirmed
Condition Summary: replicate 1, read-out: CXCR6 activity, ctrl+ = 100
Starred links: 1 amine or outer side, 2 acyl side, 3 side chain; linkers in the order of their positions; H or OH if unused. Non-standard residues stand in square brackets, D forms with d. Residues, ends and D or L forms follow the SMILES beside them. X1 = N[C@@H](Cc1ccccc1)CN(CC(=O)[*:2])[*:1]
Observation Type: activation (%)
Your answer is read as %, so omit the unit and give the number.

activation reading for C[C@H](NC(=O)CNC(=O)[C@@H](NC(=O)[C@H](Cc1ccccc1)NC(=O)CNC(=O)CNC[C@@H](N)Cc1ccccc1)[C@@H](C)O)C(=O)N[C@@H](CCCNC(=N)N)C(=O)N[C@@H](CCCCN)C(=O)N[C@@H](CO)C(=O)N[C@@H](C)C(=O)N[C@@H](CCCNC(=N)N)C(=O)N[C@@H](CCCCN)C(N)=O [FG Nociceptin 1-13] (H-[X1]GFTGARKSARK-NH2) : -0.041

According to the records, this compound NC(=O)[C@H](Cc1ccccc1)NC(=O)[C@H](Cc1c[nH]c2ccccc12)NC(=O)[C@@H]1CCCN1C(=O)[C@@H](N)Cc1ccc(O)cc1 [Endomorphin-1] displays activation of -0.315

Form: compound = CC[C@H](C)[C@H](NC(=O)[C@H](CCCNC(=N)N)NC(=O)[C@H](CCCNC(=N)N)NC(=O)[C@H](CC(C)C)NC(=O)[C@H](Cc1ccccc1)NC(=O)CNC(=O)CNC(=O)[C@@H](N)Cc1ccc(O)cc1)C(=O)N[C@@H](CCCNC(=N)N)C(=O)N1CCC[C@H]1C(=O)N[C@@H](CCCCN)C(=O)N[C@@H](CC(C)C)C(=O)N[C@@H](CCCCN)C(=O)O ; activation = 0.0731
